System: MET
assay notes: MET biochemical kinase assay
Parameters: species or system human; concentration or dose not given beside the values
Record label 1 whenever Met Kinase % Inhibition is at 40% or higher; record label 0 when lower.

Answered cases to consult:
Cc1c(Br)ccc2c1C(=Cc1ccc[nH]1)C(=O)N2 [10717/C09]; label 1
COc1cc(C=C2C(=O)Nc3ccc(Br)c(C)c32)cc(OC)c1 [10728/C04]; label 0
CCc1ccc(C=C2C(=O)Nc3c(Br)cc(Br)cc32)o1 [10724/A10]; label 1
Cc1c(Br)ccc2c1C(=Cc1ccc(C(C)(C)C)cc1)C(=O)N2 [10734/C10]; label 0

Determine whether this compound has Met Kinase % Inhibition no lower than 40%: O=C1Nc2ccc(S(=O)(=O)N3CCOCC3)cc2C1=Cc1cc(Cl)cc(Cl)c1O [10734/F03]
label 1

For this compound, is measured Met Kinase % Inhibition 40% or higher? COc1cc(C)cc(O)c1C=C1C(=O)Nc2ccc(CCCl)cc21 [10725/G06]
label 0

Does the compound CNS(=O)(=O)c1ccc2c(c1)C(=Cc1cc3ccccc3o1)C(=O)N2 [10724/D07] have recorded Met Kinase % Inhibition that is 40% or more?
label 0

Entry CC(=O)n1cc(C=C2C(=O)Nc3ccc(CCCl)cc32)c2ccccc21 [10730/G05] : is its Met Kinase % Inhibition no less than 40%?
label 0

Hi team, for CCOC(=O)c1[nH]c(C=C2C(=O)Nc3ccc(S(=O)(=O)N4CCOCC4)cc32)c(C(=O)OC)c1C [10726/F03] , is the recorded Met Kinase % Inhibition at or above 40%?
label 1

The measured values listed here are drawn from patent EP1247803A2.
